biological target: Bcl-2 protein (Recombinant Human Bcl-2 Protein) (Homo sapiens, UniProt P10415); construct: purchased Novus NBP2-34889; experiment: Binding evaluation of mixture library compounds to Bcl-2 using AS-MS (affinity selection mass spectrometry); conditions: AS-MS, mixture library, Bcl-2; replicate n = 1; ASMS Ratio(%)=(A−C)/B×100
Sequence (P10415 whole entry): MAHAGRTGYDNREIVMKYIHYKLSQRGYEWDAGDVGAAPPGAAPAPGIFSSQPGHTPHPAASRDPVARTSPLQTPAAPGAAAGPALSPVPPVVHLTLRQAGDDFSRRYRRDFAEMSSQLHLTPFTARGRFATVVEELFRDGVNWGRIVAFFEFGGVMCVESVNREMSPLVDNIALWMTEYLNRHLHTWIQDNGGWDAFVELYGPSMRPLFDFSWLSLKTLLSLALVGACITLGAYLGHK
assay_metric: ASMS ratio (%) n = 1
Express it in %; write the number only.

Prompt: Name the recorded ASMS ratio (%) n = 1 for CCOc1cccc(-c2cc(CN3CCN(c4ccc(C(=O)NS(=O)(=O)c5ccc(NCCSc6ccccc6)c([N+](=O)[O-])c5)cc4)CC3)cc(OC(F)(F)F)c2)c1 .
Completion: 13.3

Prompt: Name the recorded ASMS ratio (%) n = 1 for CCOc1cncc(-c2cc(CN3CCN(c4ccc(C(=O)NS(=O)(=O)c5ccc(NCCSc6ccccc6)c([N+](=O)[O-])c5)cc4)CC3)cc(OCC)c2)c1 .
Completion: 7.3

Prompt: Name the recorded ASMS ratio (%) n = 1 for CCOc1cccc(-c2cc(CN3CCN(c4ccc(C(=O)NS(=O)(=O)c5ccc(NCCSc6ccccc6)c([N+](=O)[O-])c5)nn4)CC3)cc(OCC)c2)c1 .
Completion: −4.8

Prompt: Name the recorded ASMS ratio (%) n = 1 for CCOc1cncc(-c2ccc(C(=O)N3CCN(c4ccc(C(=O)NS(C)(=O)=O)nn4)CC3)cc2C)c1 .
Completion: 0.9

Prompt: Name the recorded ASMS ratio (%) n = 1 for CCOc1cncc(-c2ccc(CN3CCN(c4ccc(C(=O)NS(=O)(=O)CC56CC7CC(CC(C7)C5)C6)cc4)CC3)c(CC)c2)c1 .
Completion: −1.1

Prompt: Name the recorded ASMS ratio (%) n = 1 for CCOc1cccc(-c2csc(C(=O)N3CCN(c4ccc(C(=O)NS(C)(=O)=O)cc4)CC3)c2)c1 .
Completion: 0.0

----------
molecular target: Bcl-2 protein (Recombinant Human Bcl-2 Protein) (Homo sapiens, UniProt P10415); construct: purchased Novus NBP2-34889; experiment: Binding evaluation of mixture library compounds to Bcl-2 using AS-MS (affinity selection mass spectrometry); conditions: n = 2
assay_metric: ASMS ratio (%)
Express it in %; write the number only.

Prompt: Name the recorded ASMS ratio (%) for CCOc1cccc(-c2csc(CN3CCN(c4ccc(C(=O)NS(=O)(=O)C(C)(C)C)nn4)CC3)c2)c1 [B2L093-01] .
Completion: 0.0

Prompt: Name the recorded ASMS ratio (%) for CCOc1cncc(-c2ccccc2CN2CCN(c3ccc(C(=O)NS(C)(=O)=O)cc3)CC2)c1 [B2I046-01] .
Completion: 1.5

Prompt: Name the recorded ASMS ratio (%) for CCOc1cncc(-c2ccc(CN3CCN(c4ccc(C(=O)NS(=O)(=O)C(C)(C)C)nn4)CC3)c3ccccc23)c1 [B2L092-01] .
Completion: 7.8

Prompt: Name the recorded ASMS ratio (%) for CCOc1cncc(-c2ccc(C(=O)N3CCN(c4ccc(C(=O)NS(=O)(=O)C(C)(C)C)nn4)CC3)cc2F)c1 [B2L006-01] .
Completion: 0.0

Prompt: Name the recorded ASMS ratio (%) for CCOc1cccc(-c2ccc(CN3CCN(c4ccc(C(=O)NS(=O)(=O)CCC(F)(F)F)nn4)CC3)cc2C)c1 [B2N073-01] .
Completion: 0.0

Prompt: Name the recorded ASMS ratio (%) for CCOc1cccc(-c2ccc(C(=O)N3CCN(c4ccc(C(=O)NS(=O)(=O)CCC(F)(F)F)nn4)CC3)cc2C)c1 [B2N003-01] .
Completion: 0.0

Prompt: Name the recorded ASMS ratio (%) for CCOc1cccc(-c2cc(CN3CCN(c4ccc(C(=O)NS(=O)(=O)c5ccc(NCCSc6ccccc6)c(C(F)(F)F)c5)nn4)CC3)cc(OC(F)(F)F)c2)c1 [B2R089-01] .
Completion: −9.2

Prompt: Name the recorded ASMS ratio (%) for CCOc1cncc(C#Cc2cncc(C(=O)N3CCN(c4ccc(C(=O)NS(=O)(=O)C(C)(C)C)nn4)CC3)c2)c1 [B2L010-01] .
Completion: 0.0

Prompt: Name the recorded ASMS ratio (%) for CCOc1cccc(C#Cc2ccccc2CN2CCN(c3ccc(C(=O)NS(=O)(=O)C(C)(C)C)nn3)CC2)c1 [B2L095-01] .
Completion: 0.0

Prompt: Name the recorded ASMS ratio (%) for CCOc1cncc(-c2cc(C(=O)N3CCN(c4ccc(C(=O)NS(=O)(=O)CCC(F)(F)F)cc4)CC3)cc(C(F)(F)F)c2)c1 [B2N040-01] .
Completion: 0.0

Prompt: Name the recorded ASMS ratio (%) for CCOc1cncc(-c2cc(C(=O)N3CCN(c4ccc(C(=O)NS(=O)(=O)c5ccc(NCCSc6ccccc6)c(C(F)(F)F)c5)nn4)CC3)cc(C(F)(F)F)c2)c1 [B2R018-01] .
Completion: 7.8

Prompt: Name the recorded ASMS ratio (%) for CCOc1cncc(-c2ccc(CN3CCN(c4ccc(C(=O)NS(=O)(=O)c5ccc(NCCSc6ccccc6)c(C(F)(F)F)c5)cc4)CC3)c(OC)c2)c1 [B2R054-01] .
Completion: −0.8

Prompt: Name the recorded ASMS ratio (%) for CCOc1cccc(-c2cc(OC)c(CN3CCN(c4ccc(C(=O)NS(=O)(=O)CCC(F)(F)F)cc4)CC3)c(OC)c2)c1 [B2N059-01] .
Completion: 0.0
